target of assay: CSF-1R (Homo sapiens, UniProt P07333)
Sequence (P07333 20-972): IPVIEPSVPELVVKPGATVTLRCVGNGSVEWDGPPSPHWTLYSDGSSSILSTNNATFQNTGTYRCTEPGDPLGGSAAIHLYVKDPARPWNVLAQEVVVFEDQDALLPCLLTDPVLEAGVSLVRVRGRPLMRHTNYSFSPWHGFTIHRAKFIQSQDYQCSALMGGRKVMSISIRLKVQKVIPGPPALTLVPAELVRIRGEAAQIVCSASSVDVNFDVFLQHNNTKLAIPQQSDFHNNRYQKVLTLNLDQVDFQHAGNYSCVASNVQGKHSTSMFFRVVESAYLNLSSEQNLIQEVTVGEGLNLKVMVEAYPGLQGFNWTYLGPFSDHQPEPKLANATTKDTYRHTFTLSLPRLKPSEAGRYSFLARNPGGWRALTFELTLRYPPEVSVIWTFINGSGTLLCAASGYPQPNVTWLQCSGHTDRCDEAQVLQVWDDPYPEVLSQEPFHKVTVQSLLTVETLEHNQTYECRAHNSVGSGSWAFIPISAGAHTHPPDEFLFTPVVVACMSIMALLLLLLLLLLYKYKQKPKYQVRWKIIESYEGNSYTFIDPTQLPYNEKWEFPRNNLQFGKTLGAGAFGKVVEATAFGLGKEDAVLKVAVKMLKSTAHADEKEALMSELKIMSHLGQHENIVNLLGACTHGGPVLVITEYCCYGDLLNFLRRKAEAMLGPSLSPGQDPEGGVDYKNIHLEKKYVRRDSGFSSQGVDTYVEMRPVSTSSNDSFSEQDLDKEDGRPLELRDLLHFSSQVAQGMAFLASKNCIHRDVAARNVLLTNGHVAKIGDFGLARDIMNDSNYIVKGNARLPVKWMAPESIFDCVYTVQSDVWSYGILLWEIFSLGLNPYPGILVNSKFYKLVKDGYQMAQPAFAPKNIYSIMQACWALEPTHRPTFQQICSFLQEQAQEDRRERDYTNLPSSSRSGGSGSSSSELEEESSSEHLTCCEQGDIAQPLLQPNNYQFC
test: Kinase EC50 (10 pt curve or estimate, ATP Kmapp)
setup conditions: from 10 pt curve or estimate based on 1 μm inhibition assay at ATP Kmapp
EC50 less than 400 nM is true (1); EC50 greater than or equal to 400 nM is false (0).

For orientation, consider the following solved cases.
CC(CCN1CCOCC1)Nc1ccc2ncn3c4ccc5[nH]ncc5c4c(=O)c1c23 (stereo not shown)
true (1)
CN(C)CCNc1ccc2ncn3c4ccc5[nH]ncc5c4c(=O)c1c23
true (1)

## Input Regarding `O=c1c2c(NCCCN3CCOCC3)ccc3ncn(c4ccc5[nH]ncc5c14)c32` , kindly confirm whether its EC50 is beneath 400 nM.
## Output true (1)

## Input // repeat for `CN1CCN(CCCNc2ccc3ncn4c5ccc6[nH]ncc6c5c(=O)c2c34)CC1` and report
## Output false (0)

## Input // repeat for `CCN(CC)CCCNc1ccc2ncn3c4ccc5[nH]ncc5c4c(=O)c1c23` and report
## Output false (0)

## Input // repeat for CCN(CC)CCNc1ccc2ncn3c4ccc(O)cc4c(=O)c1c23 [Symadex, reference compound] and report
## Output false (0)

## Input // repeat for `CN(C)CCCNc1ccc2ncn3c4ccc5[nH]ncc5c4c(=O)c1c23` and report
## Output true (1)
